B1: Formin-binding protein 4, residues 200 to 261; numbered along this chain, Q8N3X1 (parent)
chain: SGWQYDTQCSLAGVGIEMGDWQEVWDENTGCYYYWNTQTNEVTWELPQYLATQVQGLQHYQP

- Variants of: B1
- ASSAY_METHOD_TEXT: abundance fitness (aPCA) (normalised: wild type 0, dead -1); higher = more abundant; growth selection in yeast, the domain comes from the species named
- STUDY_CONDITIONS: Homo sapiens
QUANTITY_NAME: abundance fitness
Numbers only.

Use these answered entries as a reference point.
{"columns": ["ITEM_SEQUENCE", "abundance fitness"],
 "data": [
  ["SGWQYDTQCSLAGVGIRMGDWQEVWDENTGCYYYWNTQTNEVTWELPQYLATQVQGLQHYQP [E17R]", -0.103],
  ["SGWQYDTQCSLAGVGIEMGDWQEVWDENTGCYYDWNTQTNEVTWELPQYLATQVQGLQHYQP [Y34D]", -1],
  ["SGWQYDTQCSLAGVGIEMGDWQEVWDENTGCYYYWNTQTNIVTWELPQYLATQVQGLQHYQP [E41I]", -0.324],
  ["SGWQYDTQCSLAGVGIEMGDWQEVWDENTGCYYYWNTQTNEVTWELPQYLATQVQGLQHYQI [P62I]", -0.268]
]}

Each variant below has a reported value. Please supply its abundance fitness.
1. SGWQYDTQCSLAGVGIEMGDWQEVWDENTGCYYYWNTQTNEVTWELPQYLATQVQGLQHTQP [Y60T]
2. SGWQYDTQCSLAGVGIEMGDWQEVWDENTGCYYYWNTQTNEVTWELPQYLATQVQGLTHYQP [Q58T]
3. SGWQYDTQCDLAGVGIEMGDWQEVWDENTGCYYYWNTQTNEVTWELPQYLATQVQGLQHYQP [S10D]
4. SGWQYDTQCSLAGVGIEMGDWQEVWDENTGCYYYWNTQTNEVTWELPQYLATQVQGLLHYQP [Q58L]
5. SGWQYDTQCSLAGVGIEMGDWQEVWDENTGCYYYWNTQTNEVTWELPQYLATQVQGPQHYQP [L57P]

Ans.
1: 0.101; 2: -0.139; 3: -0.472; 4: -0.36; 5: -0.075
